Tested on: ATXN2-luc
EXPERIMENT: MSSR pilot screen: ATXN2-luc luciferase assay (Bright-Glo) in H2 cells, single 10 μM dose
Type: cell-based, human
TEST CONDITIONS: pilot screen at 10 µM compound, H2 cells expressing ATXN2-luc
ENDPOINT: SD from mean (pilot screen)

COMPOUND | RESULT
CO[C@H]1[C@H](O)[C@H](O[C@H]2CC[C@@]3(C=O)[C@H](CC[C@@H]4[C@@H]3CC[C@]3(C)[C@@H](C5=CC(=O)OC5)CC[C@]43O)C2)O[C@@H](C)[C@@H]1O [PERUVOSIDE] | -4.038
C[C@]12CC[C@H]3[C@@H](CC[C@]4(O)C[C@@H](O)CC[C@]34C=O)[C@@]1(O)CC[C@@H]2C1=CC(=O)OC1 | -4.451
C[C@@H]1O[C@@H](O[C@H]2CC[C@]3(C=O)[C@H]4CC[C@]5(C)[C@@H](C6=CC(=O)OC6)CC[C@]5(O)[C@@H]4CC[C@]3(O)C2)[C@H](O)[C@H](O)[C@H]1O | -3.689
C1CCC(N=C(NC23CC4CC(CC(C4)C2)C3)N2CCOCC2)CC1.Cl [U-37883A] | -4.965
CC(C)=CCc1c(O)cc2occ(-c3ccc4c(c3)OCO4)c(=O)c2c1O | -3.621

For every listed record, write down its SD from mean (pilot screen).
1. C[C@@H]1O[C@@H](O[C@@H]2C=C3CC[C@@H]4[C@H](CC[C@]5(C)[C@@H](c6ccc(=O)oc6)CC[C@]45O)[C@@]3(C)CC2)[C@H](O)[C@H](O)[C@H]1O
2. C/C1=C2/[N-][C@H]([C@H](CC(N)=O)[C@@]2(C)CCC(=O)NC[C@@H](C)OP(=O)([O-])O[C@H]2[C@@H](O)[C@@H](n3cnc4cc(C)c(C)cc43)O[C@@H]2CO)[C@]2(C)N=C(/C(C)=C3N=C(/C=C4N=C1[C@@H](CCC(N)=O)C\4(C)C)[C@@H](CCC(N)=O)[C@]\3(C)CC(N)=O)[C@@H](CCC(N)=O)[C@]2(C)CC(N)=O.[Co]
3. CC(C)c1cc(/C=C(\C#N)C(=O)NCCCc2ccccc2)cc(C(C)C)c1O
4. CC(=O)Oc1cccc(O)c1 [RESORCINOL MONOACETATE]
5. CC(=O)O[C@H]1CC[C@@]2(C)[C@H](CC[C@@H]3[C@@H]2CC[C@]2(C)[C@@H](C4=CC(=O)OC4)[C@@H](OC(C)=O)C[C@]32O)C1 [GITOXIGENIN DIACETATE]

[-7.684, -5.111, -4.885, -6.242, -4.261]

Entry source: paper PMC9356275
